- Tested on: MOLM-13 cells
- protocol_description: MOLM-13 Cell Proliferation Assay (indicator of DHODH inhibition)
- Type: cell-based
- condition_context: Homo sapiens, 72 Hours of culture, CellTiter-Glo, no uridine
Here the recorded IC50 is given for each entry.
Provide the reading as a plain figure in nM.

{"columns": ["compound", "target_under_test", "IC50 / nM"],
 "data": [
  ["Cc1ccnc(N2CCc3c([nH]c4cc(F)c(Cl)cc34)C2c2ccc(Cl)cc2)n1 (stereo not shown)", "MOLM-13 cells", 24.3]
]}

The compound identified as CN1CCN(c2ncc([C@H]3c4[nH]c5ccc(Br)cc5c4CCN3c3nc(C(F)(F)F)cc(C(F)(F)F)n3)cn2)CC1 registered its IC50 at 0.3

Reported IC50 ( Cc1ccnc(N2CCc3c([nH]c4cc(F)c(Cl)cc34)C2c2cccc(F)c2F)n1 (stereo not shown) ) = 13.2

So, FC(F)(F)c1ccnc(N2CCc3c([nH]c4ccc(Cl)cc34)C2c2ccc(N3C[C@@H]4C[C@H]3CO4)nc2)n1 (stereo partly shown) ? Its IC50 was 6.7

----------
- Tested on: MOLM-13 cells
- protocol_description: MOLM-13 Cell Proliferation Assay (indicator of DHODH inhibition)
- Format: cell-based
- condition_context: Homo sapiens, 72 Hours of culture, CellTiter-Glo, no uridine
pIC50: −log10 of the molar value.
Given measured pIC50, output true (1) if it is greater than or equal to 8 and false (0) if not.

{"columns": ["compound", "assigned_class"],
 "data": [
  ["Fc1ccc(C2c3[nH]c4ccc(Cl)cc4c3CCN2c2ncc(F)cn2)cc1 (stereo not shown)", "false (0)"],
  ["Fc1c(Cl)ccc2[nH]c3c(c12)CCN(c1nccc(C(F)(F)F)n1)[C@@H]3c1ccc(Cl)cc1", "false (0)"],
  ["COC(=O)c1nc(N2CCc3c([nH]c4ccc(Cl)cc34)[C@@H]2c2ccc(C)c(F)c2F)nc(C(F)(F)F)n1", "false (0)"]
]}

Data request: Assess whether reported pIC50 for Cc1nc(N2CCc3c([nH]c4ccc(Cl)cc34)[C@@H]2c2ccc(N3CCOCC3)nc2)nc(C(F)(F)F)n1 sits at 8 or higher.
Data returned: true (1)

Data request: For this compound, is measured pIC50 8 or higher? Fc1c(C2c3[nH]c4ccc(Cl)cc4c3CCN2c2nccc(C(F)(F)F)n2)ccc(N2CCOCC2)c1F (stereo not shown)
Data returned: true (1)

Data request: In plain terms: is recorded pIC50 at least 8 for Cc1ccc(C2c3[nH]c4ccc(Cl)cc4c3CCN2c2ncc(F)cn2)c(F)c1F (stereo not shown) ?
Data returned: true (1)

----------
- Tested on: MOLM-13 cells
- protocol_description: MOLM-13 Cell Proliferation Assay (indicator of DHODH inhibition)
- Format: cell-based
- condition_context: Homo sapiens, 72 Hours of culture, CellTiter-Glo, no uridine
Entries and their pIC50
The read-out pIC50 is expressed as -log10 of concentration in moles per litre.

According to the records, this compound Cc1cnnc(N2CCc3c([nH]c4ccc(Cl)cc34)C2c2cnc(N3CCOCC3)nc2)n1 (stereo not shown) displays pIC50 of 7.59

Per the records, this compound ( Cc1cc(C)nc(N2CCc3c([nH]c4cc(F)c(Cl)cc34)C2c2ccc(/C=C/CCO)cc2)n1 (stereo not shown) ) has pIC50 equal to 8.55

According to the records, this compound Cc1cnn(-c2ccc3[nH]c4c(c3c2)CCN(c2nc(C(F)(F)F)cc(C(F)(F)F)n2)C4c2ccc(N3CCOCC3)nc2)n1 (stereo not shown) displays pIC50 of 8.28

// field: pIC50; key: NS(=O)(=O)c1ccc(C2c3[nH]c4ccc(Cl)c(F)c4c3CCN2c2nccc(C(F)(F)F)n2)cc1 (stereo not shown) ; value = 8.05
